target: ScFus1; experiment: SPOT peptide array binding signal intensity (averaged, normalized) (arbitrary units (background-subtracted, floor 0; scale differs between SH3 domains)); higher = stronger binding of the SH3 domain to the peptide
assay-endpoint: SPOT peptide array binding signal intensity

{"columns": ["binder", "result"],
 "data": [
  ["LPPPPPPPPPPPLPQ", "≤ 0"],
  ["AATTSTPPLPRRRAT", "≤ 0"],
  ["APKREAPKPPANTSP", "≤ 0"]
]}
